tested on: Staphylococcus sp.; test: In vitro antibacterial evaluation: minimum inhibitory concentration (MIC), broth dilution method; assay type: cell-based; settings: strain SMITH GC 4536; broth dilution, 18 hours at 35° C.
readout type: MIC Staphylococcus aureus-SMITH (GC 4536) (µg/mL)
Number only, in µg/mL; omit the unit.

Some molecules with known MIC Staphylococcus aureus-SMITH (GC 4536) results, for comparison:
INSERT INTO assay_data (molecule, value) VALUES
  ('CCCCCCC(=O)OCC1OC(Oc2ccc(CC3NC(=O)C(C(C)c4ccccc4)NC(=O)CNC(=O)C(CO)NC(=O)C(C(O)C4CNC(=N)N4C4OC(CO)C(O)C(O)C4O)NC(=O)C(C(O)C4CNC(=N)N4)NC3=O)cc2)C(O)C(O)C1OC1OC(CO)C(O)C(O)C1O (stereo not shown) [Example 97a]', 0.5),
  ('CC(c1ccccc1)C1NC(=O)CNC(=O)C(CO)NC(=O)C(C(O)C2CNC(=N)N2C2OC(CO)C(O)C(O)C2O)NC(=O)C(C(O)C2CNC(=N)N2)NC(=O)C(Cc2ccc(OC3OC(CO)C(OC4OC(COC(=O)CCC5CCCC5)C(O)C(O)C4O)C(O)C3O)cc2)NC1=O (stereo not shown) [Example 100c]', 1),
  ('CCCCCC(=O)OCC1OC(Oc2ccc(CC3NC(=O)C(C(C)c4ccccc4)NC(=O)CNC(=O)C(CO)NC(=O)C(C(O)C4CNC(=N)N4C4OC(CO)C(O)C(O)C4O)NC(=O)C(C(O)C4CNC(=N)N4)NC3=O)cc2)C(O)C(O)C1OC1OC(CO)C(O)C(O)C1O (stereo not shown) [Example 95a]', 4);

Here's the next entry for you.
Could you tell me which MIC Staphylococcus aureus-SMITH (GC 4536) is on file for CC(c1ccccc1)C1NC(=O)CNC(=O)C(CO)NC(=O)C(C(O)C2CNC(=N)N2C2OC(CO)C(O)C(O)C2O)NC(=O)C(C(O)C2CNC(=N)N2)NC(=O)C(Cc2ccc(OC3OC(COC(=O)CCC4CCCC4)C(OC4OC(CO)C(O)C(O)C4O)C(O)C3O)cc2)NC1=O (stereo not shown) [Example 100b] ? 2

---

system: Staphylococcus sp.; test: In vitro antibacterial evaluation: minimum inhibitory concentration (MIC), broth dilution method; assay type: cell-based; details: broth dilution, 18 hours at 35° C.
compounds and their reported MIC Coagulase Negative Staphylococcus (GC 4548)
Number only, in µg/mL; omit the unit.

INSERT INTO results (compound, value) VALUES
  ('CC(c1ccccc1)C1NC(=O)CNC(=O)C(CO)NC(=O)C(C(O)C2CNC(=N)N2C2OC(CO)C(O)C(O)C2O)NC(=O)C(C(O)C2CNC(=N)N2)NC(=O)C(Cc2ccc3oc(SCc4ccccc4)nc3c2)NC1=O (stereo not shown)', 8),
  ('CC(c1ccccc1)C1NC(=O)CNC(=O)C(CO)NC(=O)C(C(O)C2CN(Cc3ccc(-c4ccccc4)cc3)C(=N)N2C2OC(CO)C(O)C(O)C2O)NC(=O)C(C(O)C2CNC(=NCc3ccc(-c4ccccc4)cc3)N2Cc2ccc(-c3ccccc3)cc2)NC(=O)C(Cc2ccc(OC3OC(CO)C(OC4OC(CO)C(O)C(O)C4O)C(O)C3O)cc2)NC1=O (stereo not shown)', 8),
  ('COc1ccc(Oc2cccc(-c3nc4cc(CC5NC(=O)C(C(C)c6ccccc6)NC(=O)CNC(=O)C(CO)NC(=O)C(C(O)C6CNC(=N)N6C6OC(CO)C(O)C(O)C6O)NC(=O)C(C(O)C6CNC(=N)N6)NC5=O)ccc4o3)c2)cc1 (stereo not shown)', 8);

Could you tell me which MIC Coagulase Negative Staphylococcus (GC 4548) is on file for COc1cc(-c2nc3cc(CC4NC(=O)C(C(C)c5ccccc5)NC(=O)CNC(=O)C(CO)NC(=O)C(C(O)C5CNC(=N)N5C5OC(CO)C(O)C(O)C5O)NC(=O)C(C(O)C5CNC(=N)N5)NC4=O)ccc3o2)cc(OC)c1OC (stereo not shown) ? 16

---

tested on: Streptococcus sp.; experiment: In vitro antibacterial evaluation: minimum inhibitory concentration (MIC), broth dilution method; assay type: cell-based; details: broth dilution, inoculum 5×10^5 CFU/mL, 18 hours at 35° C.
compounds and their reported MIC Streptococcus pyogenes (GC 4563)
Number only, in µg/mL; omit the unit.

INSERT INTO measurements (compound, readout_type, units_label, value) VALUES
  ('COc1ccc2cc(COC3C(CO)OC(OC4C(CO)OC(Oc5ccc(CC6NC(=O)C(C(C)c7ccccc7)NC(=O)CNC(=O)C(CO)NC(=O)C(CC7CNC(=N)N7C7OC(CO)C(O)C(O)C7O)NC(=O)C(CC7CNC(=N)N7)NC6=O)cc5)C(O)C4O)C(O)C3O)ccc2c1 (centres unmarked) [Example 245a]', 'MIC Streptococcus pyogenes (GC 4563)', 'µg/mL', 1),
  ('CC(c1ccccc1)C1NC(=O)CNC(=O)C(CO)NC(=O)C(C(O)C2CNC(=N)N2C2OC(CO)C(O)C(O)C2O)NC(=O)C(C(O)C2CNC(=N)N2)NC(=O)C(Cc2ccc(OC3OC(CO)C(OC4OC5COC6(CCCCC6)OC5C(O)C4O)C(O)C3O)cc2)NC1=O (centres unmarked)', 'MIC Streptococcus pyogenes (GC 4563)', 'µg/mL', 0.5),
  ('COc1ccc2cc(COCC3OC(OC4C(CO)OC(Oc5ccc(CC6NC(=O)C(C(C)c7ccccc7)NC(=O)CNC(=O)C(CO)NC(=O)C(C(O)C7CNC(=N)N7C7OC(CO)C(O)C(O)C7O)NC(=O)C(C(O)C7CNC(=N)N7)NC6=O)cc5)C(O)C4O)C(O)C(O)C3O)ccc2c1 (centres unmarked)', 'MIC Streptococcus pyogenes (GC 4563)', 'µg/mL', 0.25);

Could you share what MIC Streptococcus pyogenes (GC 4563) was measured for Cc1ccc(COCC2OC(OC3C(CO)OC(Oc4ccc(CC5NC(=O)C(C(C)c6ccccc6)NC(=O)CNC(=O)C(CO)NC(=O)C(C(O)C6CNC(=N)N6C6OC(CO)C(O)C(O)C6O)NC(=O)C(C(O)C6CNC(=N)N6)NC5=O)cc4)C(O)C3O)C(O)C(O)C2O)cc1 (centres unmarked) , tested on Streptococcus sp.? 0.5

Could you share what MIC Streptococcus pyogenes (GC 4563) was measured for CC(c1ccccc1)C1NC(=O)CNC(=O)C(CO)NC(=O)C(C(O)C2CNC(=N)N2C2OC(CO)C(O)C(O)C2O)NC(=O)C(C(O)C2CNC(=N)N2)NC(=O)C(Cc2ccc(OC3OC(CO)C(OC4OC(COCC=Cc5ccc(N(C)C)cc5)C(O)C(O)C4O)C(O)C3O)cc2)NC1=O (centres unmarked) , tested on Streptococcus sp.? 32

Could you share what MIC Streptococcus pyogenes (GC 4563) was measured for CC(c1ccccc1)C1NC(=O)CNC(=O)C(CO)NC(=O)C(C(O)C2CNC(=N)N2C2OC(CO)C(O)C(O)C2O)NC(=O)C(C(O)C2CNC(=N)N2)NC(=O)C(Cc2ccc(OC3OC(CO)C(OC4OC5COC6(OC5C(O)C4O)C(C)CCCC6C)C(O)C3O)cc2)NC1=O (centres unmarked) , tested on Streptococcus sp.? 1

Could you share what MIC Streptococcus pyogenes (GC 4563) was measured for CCOc1cc(C2OCC3OC(OC4C(CO)OC(Oc5ccc(CC6NC(=O)C(C(C)c7ccccc7)NC(=O)CNC(=O)C(CO)NC(=O)C(C(O)C7CNC(=N)N7C7OC(CO)C(O)C(O)C7O)NC(=O)C(C(O)C7CNC(=N)N7)NC6=O)cc5)C(O)C4O)C(O)C(O)C3O2)ccc1[N+](=O)[O-] (centres unmarked) , tested on Streptococcus sp.? 1
